Assay: total protein half-life in vivo (active degradation + dilution); higher = more stable protein
Conditions: wild type E. coli NCM3722; growth: C-lim chemostat; doubling time 12 h
metric.name: total protein half-life in vivo

Some sequences with known total protein half-life in vivo results, for comparison:
chain="MNYHQYYPVDIVNGPGTRCTLFVSGCVHECPGCYNKSTWRVNSGQPFTKAMEDQIINDLNDTRIKRQGISLSGGDPLHPQNVPDILKLVQRIRAECPGKDIWVWTGYKLDELNAAQMQVVDLINVLVDGKFVQDLKDPSLIWRGSSNQVVHHLR [P0A9N8]" metric_name="total protein half-life in vivo" value_measured="2.03 h"
chain=MAELSDQEMLRYNRQIILRGFDFDGQEALKDSRVLIVGLGGLGCAASQYLASAGVGNLTLLDFDTVSLSNLQRQTLHSDATVGQPKVESARDALTRINPHIAITPVNALLDDAELAALIAEHDLVLDCTDNVAVRNQLNAGCFAAKVPLVSGAAIRMEGQITVFTYQDGEPCYRCLSRLFGENALTCVEAGVMAPLIGVIGSLQAMEAIKMLAGYGKPASGKIVMYDAMTCQFREMKLMRNPGCEVCGQ metric_name="total protein half-life in vivo" value_measured="11.3 h"
chain="MEKGTVKWFNNAKGFGFICPEGGGEDIFAHYSTIQMDGYRTLKAGQSVQFDVHQGPKGNHASVIVPVEVEAAVA [P0A968]" metric_name="total protein half-life in vivo" value_measured="0.224 h"

Now for the sequence whose total protein half-life in vivo we want.
**Q:** Would you mind telling me what total protein half-life in vivo value was observed for MSQTVHFQGNPVTVANSIPQAGSKAQTFTLVAKDLSDVTLGQFAGKRKVLNIFPSIDTGVCAASVRKFNQLATEIDNTVVLCISADLPFAQSRFCGAEGLNNVITLSTFRNAEFLQAYGVAIADGPLKGLAARAVVVIDENDNVIFSQLVDEITTEPDYEAALAVLKA [P0A862] ?
**A:** 10.8 h
